# Tested on: KRAS patient-derived spheroids with HUVEC/MSC, viability;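 further: compound exposure lasted seven days before readout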
# Test summary: Anticancer human tumor 519858-162-T-J1-PDC patient-derived colon adenocarcinoma cell line growth inhibition [KRAS2]
# Experimental parameters: second compound 1 µM; first compound 0.316 µM; hits give low values
Threshold 70%: viability, T/C strictly smaller gives fulfilled, otherwise not fulfilled.

Molecule: CCNC(=O)CC1N=C(c2ccc(Cl)cc2)c2cc(OC)ccc2-n2c(C)nnc21 (stereo not given) + COc1cc2nc(C)nc(NC(C)c3cc(N)cc(C(F)(F)F)c3)c2cc1OC1CCOC1
Group: fulfilled

Molecule: COc1cc2nccc(Oc3ccc(NC(=O)C4(C(=O)Nc5ccc(F)cc5)CC4)cc3)c2cc1OC + CC1OCC2(CCN(c3cnc(Sc4ccnc(N)c4Cl)c(N)n3)CC2)C1N
Group: not fulfilled

Molecule: COC(=O)c1ccc2c(C(=Nc3ccc(N(C)C(=O)CN4CCN(C)CC4)cc3)c3ccccc3)c(O)[nH]c2c1 + C=CC(=O)N1CCN(c2nc(OCC3CCCN3C)nc3c2CCN(c2cccc4cccc(C)c24)C3)CC1CC#N
Group: fulfilled

Lookup: Hello, I'm reviewing records and need to know if viability, T/C of CC(C)NCC(C(=O)N1CCN(c2ncnc3c2C(C)CC3O)CC1)c1ccc(Cl)cc1 (stereo not given) + C=CC(=O)N1CCN(c2nc(=O)n(-c3c(C)ccnc3C(C)C)c3nc(-c4c(O)cccc4F)c(F)cc23)C(C)C1 is below 70%. Could you check?
Found: not fulfilled

Lookup: Similarly, O=C(c1cc(Cc2n[nH]c(=O)c3ccccc23)ccc1F)N1CCN(C(=O)C2CC2)CC1 + C=CC(=O)N1CCN(c2nc(OCC3CCCN3C)nc3c2CCN(c2cccc4cccc(C)c24)C3)CC1CC#N ?
Found: not fulfilled
